target under test: Human PD-L1/PD-1 (Homo sapiens)
Construct: made in house; host or cells: HEK293T
Sequence (Q9NZQ7 with tags, fused parts or gaps): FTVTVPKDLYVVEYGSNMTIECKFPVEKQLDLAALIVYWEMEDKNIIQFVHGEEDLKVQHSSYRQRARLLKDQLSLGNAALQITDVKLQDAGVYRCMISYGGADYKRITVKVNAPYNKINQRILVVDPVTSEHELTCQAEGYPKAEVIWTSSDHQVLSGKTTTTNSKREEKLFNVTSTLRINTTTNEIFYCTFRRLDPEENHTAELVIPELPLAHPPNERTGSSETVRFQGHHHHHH
assay procedure: HTRF PD-1-Ig/PD-L1-His binding assay (human PD-L1)
applied conditions: cluster symbol; read-out: HTRF IC50 cluster
Positions of bridges follow the written chain, without caps; N, C: chain ends. Non-standard residues stand in square brackets, D forms with d. Residues, ends and D or L forms follow the SMILES beside them. ξ: configuration not given here. Ala(indol-4-yl) = N[C@@H](Cc1cccc2[nH]ccc12)C(=O)O; Bta = N[C@@H](Cc1csc2ccccc12)C(=O)O; Hyp = O=C(O)[C@@H]1C[C@@H](O)CN1; NMeF = CN[C@@H](Cc1ccccc1)C(=O)O; NMeNle = CCCC[C@H](NC)C(=O)O; NMeA = CN[C@@H](C)C(=O)O; Dap = NC[C@H](N)C(=O)O; ξC = NC(CS)C(=O)O; Sar = CNCC(=O)O
measure: IC50

CCCC[C@H]1C(=O)N(C)CC(=O)N[C@@H](CC(=O)O)C(=O)N[C@@H](C(C)C)C(=O)N(C)[C@@H](Cc2ccccc2)C(=O)N[C@@H](Cc2ccc(O)cc2)C(=O)N(C)CC(=O)N[C@@H](Cc2c[nH]c3ccccc23)C(=O)N[C@@H](Cc2ccc(O)cc2)C(=O)N[C@@H](CC(C)C)C(=O)N[C@H](C(=O)NCC(N)=O)CSCC(=O)N[C@@H](Cc2cccc3[nH]ccc23)C(=O)N(C)[C@@H](Cc2ccccc2)C(=O)N1C [Example 3103] ({CH2CO}-[Ala(indol-4-yl)][NMeF][NMeNle][Sar]DV[NMeF]Y[Sar]WYLCG-NH2; thioether N-13) = > 30.5 nM

Reported IC50 for CCCC[C@H]1C(=O)N(C)[C@@H](CCCC)C(=O)N[C@@H](CCCNC(=N)N)C(=O)NC(C(=O)NCC(N)=O)CSCC(=O)N[C@@H](Cc2ccc(O)cc2)C(=O)N(C)[C@@H](C)C(=O)N[C@@H](CC(N)=O)C(=O)N2CCC[C@H]2C(=O)N[C@@H](CO)C(=O)N[C@@H](CC(C)C)C(=O)N2CCC[C@H]2C(=O)N[C@@H](Cc2c[nH]c3ccccc23)C(=O)N[C@@H](CO)C(=O)N[C@@H](Cc2csc3ccccc23)C(=O)N1C (stereo partly shown) [Example 9072] ({CH2CO}-Y[NMeA]NPSLPWS[Bta][NMeNle][NMeNle]R[ξC]G-NH2; thioether N-14) : what is it? 0.385 to 6.74 nM

Another molecule: CCCC[C@H]1C(=O)N(C)[C@@H](CCCC)C(=O)N[C@@H](CN)C(=O)N[C@H](C(=O)NCC(N)=O)CSCC(=O)N[C@@H](Cc2ccc(O)cc2)C(=O)N(C)[C@@H](C)C(=O)N[C@@H](CC(N)=O)C(=O)N2CCC[C@H]2C(=O)N[C@@H](CN)C(=O)N[C@@H](CCC(=O)O)C(=O)N2C[C@H](O)C[C@H]2C(=O)N[C@@H](Cc2c[nH]c3ccccc23)C(=O)N[C@@H](CO)C(=O)N[C@@H](Cc2csc3ccccc23)C(=O)N1C [Example 1162] ({CH2CO}-Y[NMeA]NP[Dap]E[Hyp]WS[Bta][NMeNle][NMeNle][Dap]CG-NH2; thioether N-14) 0.385 to 6.74 nM

Another molecule: CCCC[C@H]1C(=O)N(C)[C@@H](CCCC)C(=O)N[C@@H](CC(=O)O)C(=O)N[C@H](C(=O)NCC(N)=O)CSCC(=O)N[C@@H](Cc2ccccc2)C(=O)N(C)[C@@H](C)C(=O)N[C@@H](CC(N)=O)C(=O)N2CCC[C@H]2C(=O)N[C@@H](Cc2cnc[nH]2)C(=O)N[C@@H](CC(C)C)C(=O)N(C)CC(=O)N[C@@H](Cc2c[nH]c3ccccc23)C(=O)N[C@@H](CO)C(=O)N[C@@H](Cc2c[nH]c3ccccc23)C(=O)N1C [Example 5030] ({CH2CO}-F[NMeA]NPHL[Sar]WSW[NMeNle][NMeNle]DCG-NH2; thioether N-14) > 30.5 nM

====

target under test: LK35.2-hPD-L1 cells / PE-labeled PD-1-Ig (Homo sapiens)
Construct: expressed in transfected cells; host or cells: LK35.2 mouse B cell line
Sequence (Q9NZQ7 19-290): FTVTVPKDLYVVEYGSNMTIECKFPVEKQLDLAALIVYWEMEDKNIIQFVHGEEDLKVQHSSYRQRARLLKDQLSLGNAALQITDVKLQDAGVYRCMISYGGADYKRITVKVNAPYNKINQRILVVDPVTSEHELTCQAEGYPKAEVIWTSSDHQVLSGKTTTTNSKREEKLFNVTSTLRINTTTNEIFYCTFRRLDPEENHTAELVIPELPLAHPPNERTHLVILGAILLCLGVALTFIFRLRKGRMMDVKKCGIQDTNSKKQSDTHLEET
assay procedure: LK35.2-hPD-L1 cell binding high-content screening assay
Assay type: cell-based
applied conditions: cluster symbol; cell line of CBA not given (LK35.2-hPD-L1 or 293T-hPD-L1); read-out: CBA IC50 cluster
Positions of bridges follow the written chain, without caps; N, C: chain ends. Non-standard residues stand in square brackets, D forms with d. Residues, ends and D or L forms follow the SMILES beside them. ξ: configuration not given here. Phe(3-CF3) = N[C@@H](Cc1cccc(C(F)(F)F)c1)C(=O)O; ξTrp(5-F) = NC(Cc1c[nH]c2ccc(F)cc12)C(=O)O; Bta = N[C@@H](Cc1csc2ccccc12)C(=O)O; ξPro(4R-OH) = O=C(O)C1C[C@@H](O)CN1; Hyp = O=C(O)[C@@H]1C[C@@H](O)CN1; NMeNle = CCCC[C@H](NC)C(=O)O; NMeA = CN[C@@H](C)C(=O)O; Dab = NCC[C@H](N)C(=O)O; Dap = NC[C@H](N)C(=O)O; Sar = CNCC(=O)O
measure: IC50

CCCC[C@H]1C(=O)N(C)[C@@H](CCCC)C(=O)N[C@@H](C)C(=O)N[C@H](C(=O)NCC(N)=O)CSCC(=O)N[C@@H](Cc2ccc(O)cc2)C(=O)N(C)[C@@H](C)C(=O)N[C@@H](CC(=O)O)C(=O)N2CCC[C@H]2C(=O)N[C@@H](CN)C(=O)N[C@@H](CC(C)C)C(=O)N2C[C@H](O)C[C@H]2C(=O)N[C@@H](Cc2c[nH]c3ccccc23)C(=O)N[C@@H](CO)C(=O)N[C@@H](Cc2c[nH]c3ccccc23)C(=O)N1C [Example 1138] ({CH2CO}-Y[NMeA]DP[Dap]L[Hyp]WSW[NMeNle][NMeNle]ACG-NH2; thioether N-14) = 0.158 to 4.71 nM
CCCC[C@H]1C(=O)N(C)[C@@H](CCCC)C(=O)N[C@@H](CN)C(=O)N[C@H](C(=O)NCC(N)=O)CSCC(=O)N[C@@H](Cc2ccc(O)cc2)C(=O)N2CCC[C@H]2C(=O)N[C@@H](CC(=O)O)C(=O)N2CCC[C@H]2C(=O)N[C@@H](CN)C(=O)N[C@@H](CCC(N)=O)C(=O)N2C[C@H](O)CC2C(=O)N[C@@H](Cc2c[nH]c3ccccc23)C(=O)N[C@@H](CCN)C(=O)N[C@@H](Cc2csc3ccccc23)C(=O)N1C (stereo partly drawn) [Example 1228] ({CH2CO}-YPDP[Dap]Q[ξPro(4R-OH)]W[Dab][Bta][NMeNle][NMeNle][Dap]CG-NH2; thioether N-14) = 4.78 to 72.9 nM
CCCC[C@H]1C(=O)N(C)[C@@H](CCCC)C(=O)N[C@@H](CCCNC(=N)N)C(=O)N[C@H](C(=O)NCC(N)=O)CSCC(=O)N[C@@H](Cc2ccccc2)C(=O)N(C)[C@@H](C)C(=O)N[C@@H](CC(N)=O)C(=O)N2CCC[C@H]2C(=O)N[C@@H](Cc2cnc[nH]2)C(=O)N[C@@H](CC(C)C)C(=O)N(C)CC(=O)N[C@@H](Cc2cccc(C(F)(F)F)c2)C(=O)N[C@@H](CO)C(=O)N[C@@H](Cc2c[nH]c3ccccc23)C(=O)N1C [Example 1018] ({CH2CO}-F[NMeA]NPHL[Sar][Phe(3-CF3)]SW[NMeNle][NMeNle]RCG-NH2; thioether N-14) = > 74.3 nM

--- query ---
Reported IC50 for CCCC[C@H]1C(=O)N(C)[C@@H](CCCC)C(=O)N[C@@H](CCCNC(=N)N)C(=O)N[C@H](C(=O)NCC(N)=O)CSCC(=O)N[C@@H](Cc2ccccc2)C(=O)N(C)[C@@H](C)C(=O)N[C@@H](CC(N)=O)C(=O)N2CCC[C@H]2C(=O)N[C@@H](Cc2cnc[nH]2)C(=O)N[C@@H](CC(C)C)C(=O)N(C)CC(=O)N[C@@H](Cc2c[nH]c3ccccc23)C(=O)N[C@@H](CO)C(=O)NC(Cc2c[nH]c3ccc(F)cc23)C(=O)N1C (stereo partly shown) [Example 1039] ({CH2CO}-F[NMeA]NPHL[Sar]WS[ξTrp(5-F)][NMeNle][NMeNle]RCG-NH2; thioether N-14) : what is it? 4.78 to 72.9 nM

====

Measured IC50 of individual entries
target under test: LK35.2-hPD-L1 cells / PE-labeled PD-1-Ig (Homo sapiens)
Construct: expressed in transfected cells; host or cells: LK35.2 mouse B cell line
assay procedure: LK35.2-hPD-L1 cell binding high-content screening assay
Type: cell-based
applied conditions: cluster symbol; cell line of CBA not given (LK35.2-hPD-L1 or 293T-hPD-L1); read-out: CBA IC50 cluster
Positions of bridges follow the written chain, without caps; N, C: chain ends. Non-standard residues stand in square brackets, D forms with d. Residues, ends and D or L forms follow the SMILES beside them. Phe(3-F) = N[C@@H](Cc1cccc(F)c1)C(=O)O; Bta = N[C@@H](Cc1csc2ccccc12)C(=O)O; cisHyp = O=C(O)[C@@H]1C[C@H](O)CN1; Hyp = O=C(O)[C@@H]1C[C@@H](O)CN1; NMeF = CN[C@@H](Cc1ccccc1)C(=O)O; NMeNle = CCCC[C@H](NC)C(=O)O; NMeA = CN[C@@H](C)C(=O)O; Dap = NC[C@H](N)C(=O)O; Sar = CNCC(=O)O

Worked set:
CCCC[C@H]1C(=O)N(C)[C@@H](CCCC)C(=O)N[C@@H](CN)C(=O)N[C@H](C(=O)NCC(N)=O)CSCC(=O)N[C@@H](Cc2ccc(O)cc2)C(=O)N(C)[C@@H](C)C(=O)N[C@@H](CC(N)=O)C(=O)N2CCC[C@H]2C(=O)N[C@@H](Cc2cnc[nH]2)C(=O)N[C@@H](CC(C)C)C(=O)N2C[C@H](O)C[C@H]2C(=O)N[C@@H](Cc2c[nH]c3ccccc23)C(=O)N[C@@H](CO)C(=O)N[C@@H](Cc2c[nH]c3ccccc23)C(=O)N1C = 0.158 to 4.71 nM
CCCC[C@H]1C(=O)N(C)CC(=O)N[C@@H](CC(=O)O)C(=O)N[C@@H](C(C)C)C(=O)N(C)[C@@H](Cc2ccccc2)C(=O)N[C@@H](Cc2ccc(O)cc2)C(=O)N(C)CC(=O)N[C@@H](Cc2csc3ccccc23)C(=O)N[C@@H](Cc2ccc(O)cc2)C(=O)N[C@@H](CC(C)C)C(=O)N[C@H](C(=O)NCC(N)=O)CSCC(=O)N[C@@H](Cc2cccc(F)c2)C(=O)N(C)[C@@H](Cc2ccccc2)C(=O)N1C [Example 3117] ({CH2CO}-[Phe(3-F)][NMeF][NMeNle][Sar]DV[NMeF]Y[Sar][Bta]YLCG-NH2; thioether N-13) = 4.78 to 72.9 nM
CCCC[C@H]1C(=O)N(C)[C@@H](CCCC)C(=O)N[C@@H](CCCNC(=N)N)C(=O)N[C@H](C(=O)NCC(N)=O)CSCC(=O)N[C@@H](Cc2ccc(O)cc2)C(=O)N(C)[C@@H](C)C(=O)N[C@@H](CN)C(=O)N2CCC[C@H]2C(=O)N[C@@H](C)C(=O)N[C@@H](CC(C)C)C(=O)N2C[C@@H](O)C[C@H]2C(=O)N[C@@H](Cc2c[nH]c3ccccc23)C(=O)N[C@@H](CO)C(=O)N[C@@H](Cc2c[nH]c3ccccc23)C(=O)N1C [Example 1143] ({CH2CO}-Y[NMeA][Dap]PAL[cisHyp]WSW[NMeNle][NMeNle]RCG-NH2; thioether N-14) = > 74.3 nM

Reported IC50 for CCCC[C@H]1C(=O)N(C)[C@@H](CCCC)C(=O)N[C@@H](C)C(=O)N[C@H](C(N)=O)CSCC(=O)N[C@@H](Cc2ccc(O)cc2)C(=O)N(C)[C@@H](C)C(=O)N[C@@H](CCC(=O)O)C(=O)N2CCC[C@H]2C(=O)N[C@@H](CN)C(=O)N[C@@H](CC(C)C)C(=O)N2C[C@H](O)C[C@H]2C(=O)N[C@@H](Cc2c[nH]c3ccccc23)C(=O)N[C@@H](CO)C(=O)N[C@@H](Cc2c[nH]c3ccccc23)C(=O)N1C [Example 1172] ({CH2CO}-Y[NMeA]EP[Dap]L[Hyp]WSW[NMeNle][NMeNle]AC-NH2; thioether N-14) : what is it? 4.78 to 72.9 nM
